read-out: CYP2C8 (gene 1558); test: LTEA_HepaRG_CYP2C8: Life Technologies and Expression Analysis (LTEA) Assay for CYP2C8 using HepaRG (AID 2283483); conditions: mRNA level, 48 h; actives raise or lower the signal
Activity calls are given as the source filed them. Rule for the calls: active = hit-call score of the fitted dose curve at least 0.9, where 1 is the maximum; inactive = score below 0.9.
The reply should name one outcome from active, inactive

These solved cases illustrate the format of a correct answer.
CCC1(c2ccccc2)C(=O)N=C(O)NC1=O (stereo not drawn): active
c1nc[nH]n1: inactive

Now take the following compound into account.
Query block: Outcome logged for O=P(Oc1ccccc1)(Oc1ccccc1)Oc1ccccc1 in this assay:
Result block: active

* * *

read-out: E-selectin (Homo sapiens) (UniProt P16581); test: BSK_SAg_Eselectin: BioMAP Diversity Plus: SAg Assay for Eselectin Biomarker Activity (AID 2283091); conditions: primary human HUVEC with PBMC; actives raise or lower the signal
Sequence (P16581 whole entry, looked up): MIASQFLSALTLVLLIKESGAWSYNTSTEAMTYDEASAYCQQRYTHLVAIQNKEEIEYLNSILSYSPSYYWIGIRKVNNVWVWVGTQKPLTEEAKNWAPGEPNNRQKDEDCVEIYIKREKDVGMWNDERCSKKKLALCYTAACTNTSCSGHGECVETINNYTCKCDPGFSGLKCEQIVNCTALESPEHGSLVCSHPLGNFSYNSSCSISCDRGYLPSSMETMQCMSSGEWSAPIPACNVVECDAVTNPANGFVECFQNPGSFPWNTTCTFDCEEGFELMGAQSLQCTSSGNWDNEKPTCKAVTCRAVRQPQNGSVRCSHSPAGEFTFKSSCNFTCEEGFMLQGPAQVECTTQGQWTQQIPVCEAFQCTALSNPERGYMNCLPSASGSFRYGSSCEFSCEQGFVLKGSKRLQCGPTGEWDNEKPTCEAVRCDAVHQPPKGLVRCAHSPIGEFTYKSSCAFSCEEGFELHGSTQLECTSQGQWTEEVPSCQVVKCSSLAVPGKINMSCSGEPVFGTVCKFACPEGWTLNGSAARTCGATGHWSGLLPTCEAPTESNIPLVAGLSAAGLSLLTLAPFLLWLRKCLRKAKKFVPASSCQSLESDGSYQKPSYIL
The source made the active and inactive calls. Rule for the calls: active = hit-call score of the fitted dose curve at least 0.9, where 1 is the maximum; inactive = score below 0.9.
The reply should name one outcome from t = active, f = inactive

These solved cases illustrate the format of a correct answer.
CCOS(=O)(=O)OCC: f
CCOP(=S)(NC(C)C)Oc1ccccc1C(=O)OC(C)C (stereo unspecified): f

Query block: Outcome logged for CC(Cl)CN(C)C (stereo unspecified) in this assay:
Result block: t

Query block: Outcome logged for CCOP(=S)(OCC)SCn1nnc2ccccc2c1=O in this assay:
Result block: t

Query block: Outcome logged for Nc1ccc([N+](=O)[O-])cc1Cl in this assay:
Result block: f

Query block: Outcome logged for Cc1ccc([N+](=O)[O-])cc1C in this assay:
Result block: f
